# assayedTarget: HsCLK1 (Homo sapiens)
# Construct: made in house; host or cells: Sf9 insect cells
# Sequence (P49759 whole entry): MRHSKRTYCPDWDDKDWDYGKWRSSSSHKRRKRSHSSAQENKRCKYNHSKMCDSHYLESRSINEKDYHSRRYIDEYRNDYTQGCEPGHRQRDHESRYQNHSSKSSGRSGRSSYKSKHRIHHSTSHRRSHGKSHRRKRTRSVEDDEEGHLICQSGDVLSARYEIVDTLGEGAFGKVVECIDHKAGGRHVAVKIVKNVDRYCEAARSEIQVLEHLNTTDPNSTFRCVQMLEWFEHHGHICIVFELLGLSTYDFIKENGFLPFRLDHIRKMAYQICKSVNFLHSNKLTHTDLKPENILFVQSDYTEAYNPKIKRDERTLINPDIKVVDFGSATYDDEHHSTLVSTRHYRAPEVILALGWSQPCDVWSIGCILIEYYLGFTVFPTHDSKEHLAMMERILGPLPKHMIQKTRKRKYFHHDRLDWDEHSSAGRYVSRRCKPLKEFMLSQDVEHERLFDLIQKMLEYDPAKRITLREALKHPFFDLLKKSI
# method: ADP-Glo in vitro kinase inhibition assay, CLK1
# Assay type: biochemical
# conditionLabel: 10 μM compound, 10 μM ATP; read-out: CLK1 % residual activity
Kindly apply the following: T if remaining activity at 10 µM is less than 20%, F in every other case.

Solved cases below.
>  <recordSmiles>
c1c[nH]c(-c2c[nH]c3cc4cnccc4cc23)c1

>  <categoryLabel>
F

$$$$
>  <recordSmiles>
c1cc2cc3c(-c4cc[nH]n4)c[nH]c3cc2cn1

>  <categoryLabel>
T

$$$$
>  <recordSmiles>
Nc1ccc(-c2c[nH]c3cc4cnccc4cc23)cn1

>  <categoryLabel>
T

$$$$
>  <recordSmiles>
c1cc2cc3c(-c4cn[nH]c4)c[nH]c3cc2cn1

>  <categoryLabel>
T

$$$$

We next turn to a different molecule, shown below.
Consider the molecule COC(=O)/C=C/c1c[nH]c2cc3cnccc3cc12 . Is its remaining activity at 10 µM strictly less than 20%?
F

====

# assayedTarget: HsCLK1 (Homo sapiens)
# Construct: made in house; host or cells: Sf9 insect cells
# method: ADP-Glo in vitro kinase inhibition assay, CLK1
# Type: biochemical
# conditionLabel: 1 μM compound, 10 μM ATP; read-out: CLK1 % residual activity
readoutName: remaining activity at 1 µM (%)
Write the answer as a number in %, unit excluded.

>  <compound>
Clc1cc(-c2c[nH]c3cc4cnccc4cc23)ccn1 [Compound 2]

>  <assayedTarget>
HsCLK1 (Homo sapiens)

>  <remaining activity at 1 µM / %>
56

$$$$

So what remaining activity at 1 µM did c1cc2cc3c(-c4cc[nH]n4)c[nH]c3cc2cn1 [Compound 15] get with HsCLK1 (Homo sapiens)?
32

Request: remaining activity at 1 µM, test system HsCLK1 (Homo sapiens), entry c1c[nH]c(-c2c[nH]c3cc4cnccc4cc23)c1 [Compound 17]
47

Notebook entry, HsCLK1 (Homo sapiens) assay: remaining activity at 1 µM of Nc1ccc(-c2c[nH]c3cc4cnccc4cc23)cn1 [Compound 3] = ?
59

Any idea what remaining activity at 1 µM came out for CC(C)(C)OC(=O)CCc1c[nH]c2cc3cnccc3cc12 [Compound 11] on HsCLK1 (Homo sapiens)?
98

remaining activity at 1 µM of CC(C)(C)OC(=O)/C=C/c1c[nH]c2cc3cnccc3cc12 [Compound 9] on HsCLK1 (Homo sapiens)?
86

What remaining activity at 1 µM appears in the records for this compound with HsCLK1 (Homo sapiens)? COC(=O)/C=C/c1c[nH]c2cc3cnccc3cc12 [Compound 8]
55

Field: remaining activity at 1 µM (HsCLK1 (Homo sapiens)). Entry: c1cc2cc3c(-c4cn[nH]c4)c[nH]c3cc2cn1 [Compound 16]
4

Which measured remaining activity at 1 µM belongs to COC(=O)CCc1c[nH]c2cc3cnccc3cc12 [Compound 10] , tested on HsCLK1 (Homo sapiens)?
91

====

# assayedTarget: RnDYRK1A-kd (Rattus norvegicus, UniProt Q63470)
# Construct: Rattus norvegicus, amino acids 1–499, pGEX-2TK; made in house; host or cells: bacteria
# method: ADP-Glo in vitro kinase inhibition assay, DYRK1A
# Type: biochemical
# conditionLabel: 10 μM compound, 10 μM ATP; read-out: DYRK1A % residual activity
Entries whose remaining activity at 10 µM is below 20% take criterion met; entries at or above 20% take criterion not met.

# example entries with known answers
>  <compound>
COC(=O)/C=C/c1c[nH]c2cc3cnccc3cc12 [Compound 8]

>  <categoryLabel>
criterion met

$$$$
>  <compound>
CC(C)(C)OC(=O)CCc1c[nH]c2cc3cnccc3cc12 [Compound 11]

>  <categoryLabel>
criterion not met

$$$$
>  <compound>
c1cc2cc3c(-c4cc[nH]n4)c[nH]c3cc2cn1 [Compound 15]

>  <categoryLabel>
criterion met

$$$$

# check: remaining activity at 10 µM < 20% for c1cc2cc3c(-c4cn[nH]c4)c[nH]c3cc2cn1 [Compound 16]
criterion met

In the record for COC(=O)CCc1c[nH]c2cc3cnccc3cc12 [Compound 10] , is remaining activity at 10 µM less than 20%?
criterion not met

====

# assayedTarget: RnDYRK1A-kd (Rattus norvegicus)
# Construct: Rattus norvegicus, amino acids 1–499, pGEX-2TK; made in house; host or cells: bacteria
# method: ADP-Glo in vitro kinase inhibition assay, DYRK1A
# Type: biochemical
# conditionLabel: 1 μM compound, 10 μM ATP; read-out: DYRK1A % residual activity
Flag rule - remaining activity at 1 µM less than 40% flags Y; the remaining entries get N.

Problem: For the molecule Nc1ccc(-c2c[nH]c3cc4cnccc4cc23)cn1 [Compound 3] , is remaining activity at 1 µM under 40%?
Y

State whether 40% exceeds remaining activity at 1 µM recorded for COC(=O)/C=C/c1c[nH]c2cc3cnccc3cc12 [Compound 8] .
N

Could you please tell me whether remaining activity at 1 µM recorded for COC(=O)CCc1c[nH]c2cc3cnccc3cc12 [Compound 10] is less than 40%?
N

Criterion: remaining activity at 1 µM strictly below 40%. Is it met by c1c[nH]c(-c2c[nH]c3cc4cnccc4cc23)c1 [Compound 17] ?
N

In plain terms, does Clc1cc(-c2c[nH]c3cc4cnccc4cc23)ccn1 [Compound 2] come in under 40% for remaining activity at 1 µM?
Y

====

# assayedTarget: HsGSK3β (Homo sapiens, UniProt P49841)
# Construct: made in house; host or cells: Sf9 insect cells (baculovirus)
# Sequence (P49841 whole entry): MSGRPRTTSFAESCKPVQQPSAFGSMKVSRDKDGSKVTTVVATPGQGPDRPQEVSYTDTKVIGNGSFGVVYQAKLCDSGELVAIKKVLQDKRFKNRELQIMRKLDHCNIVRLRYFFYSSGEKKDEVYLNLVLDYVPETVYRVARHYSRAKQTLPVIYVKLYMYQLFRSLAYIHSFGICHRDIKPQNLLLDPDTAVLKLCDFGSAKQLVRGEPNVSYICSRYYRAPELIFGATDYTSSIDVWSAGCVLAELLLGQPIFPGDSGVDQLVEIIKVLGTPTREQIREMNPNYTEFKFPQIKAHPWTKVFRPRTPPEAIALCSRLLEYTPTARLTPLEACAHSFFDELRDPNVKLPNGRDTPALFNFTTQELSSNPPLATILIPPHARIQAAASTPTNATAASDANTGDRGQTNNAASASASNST
# method: ADP-Glo in vitro kinase inhibition assay, GSK3β
# Type: biochemical
# conditionLabel: 1 μM compound, 10 μM ATP; read-out: GSK3 % residual activity
remaining activity at 1 µM strictly less than 90% = t. Otherwise f.

Check if remaining activity at 1 µM falls below 90% for COC(=O)CCc1c[nH]c2cc3cnccc3cc12 .
f

====

# assayedTarget: CDK5/p25 (Homo sapiens, UniProt Q00535)
# Construct: made in house; host or cells: bacteria
# Sequence (Q00535 whole entry): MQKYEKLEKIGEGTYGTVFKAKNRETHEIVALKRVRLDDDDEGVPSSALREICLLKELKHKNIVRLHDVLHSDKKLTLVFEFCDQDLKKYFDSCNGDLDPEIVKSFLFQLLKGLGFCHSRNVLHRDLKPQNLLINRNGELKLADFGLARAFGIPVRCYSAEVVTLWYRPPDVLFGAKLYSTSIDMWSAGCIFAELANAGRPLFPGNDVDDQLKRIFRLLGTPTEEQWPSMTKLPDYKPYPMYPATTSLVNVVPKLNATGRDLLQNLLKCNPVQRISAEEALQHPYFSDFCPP
# Sequence (Q15078 99-307 partner limits assumed): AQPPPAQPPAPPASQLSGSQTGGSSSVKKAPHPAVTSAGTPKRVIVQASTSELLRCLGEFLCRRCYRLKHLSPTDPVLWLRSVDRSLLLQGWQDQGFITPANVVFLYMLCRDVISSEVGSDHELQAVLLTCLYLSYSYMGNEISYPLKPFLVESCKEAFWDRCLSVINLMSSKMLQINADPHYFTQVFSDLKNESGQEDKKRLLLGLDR
# method: ADP-Glo in vitro kinase inhibition assay, CDK5/p25
# Assay type: biochemical
# conditionLabel: 10 μM compound, 10 μM ATP; read-out: CDK5 % residual activity
readoutName: remaining activity at 10 µM

Known results for molecules:
>  <recordSmiles>
c1cc2cc3c(-c4cn[nH]c4)c[nH]c3cc2cn1

>  <readoutName>
remaining activity at 10 µM

>  <measValue>
10%

$$$$
>  <recordSmiles>
CC(C)(C)OC(=O)/C=C/c1c[nH]c2cc3cnccc3cc12

>  <readoutName>
remaining activity at 10 µM

>  <measValue>
100%

$$$$
>  <recordSmiles>
Clc1cc(-c2c[nH]c3cc4cnccc4cc23)ccn1

>  <readoutName>
remaining activity at 10 µM

>  <measValue>
100%

$$$$
>  <recordSmiles>
c1c[nH]c(-c2c[nH]c3cc4cnccc4cc23)c1

>  <readoutName>
remaining activity at 10 µM

>  <measValue>
81%

$$$$
>  <recordSmiles>
Nc1ccc(-c2c[nH]c3cc4cnccc4cc23)cn1

>  <readoutName>
remaining activity at 10 µM

>  <measValue>
100%

$$$$
>  <recordSmiles>
CC(C)(C)OC(=O)CCc1c[nH]c2cc3cnccc3cc12

>  <readoutName>
remaining activity at 10 µM

>  <measValue>
100%

$$$$

Query remaining activity at 10 µM on CDK5/p25 (Homo sapiens, UniProt Q00535) for COC(=O)CCc1c[nH]c2cc3cnccc3cc12
100%

CDK5/p25 (Homo sapiens, UniProt Q00535) / remaining activity at 10 µM / c1cc2cc3c(-c4cc[nH]n4)c[nH]c3cc2cn1 : value?
76%

GET /values?readout=remaining activity at 10 µM&system=CDK5/p25 (Homo sapiens, UniProt Q00535)&item= COC(=O)/C=C/c1c[nH]c2cc3cnccc3cc12
100%

====

# assayedTarget: HsHaspin-kd (Homo sapiens)
# Construct: kinase domain, amino acids 470–798 cloned in pGEX-6P-3; made in house; host or cells: bacteria
# Sequence (Q8TF76 470-798): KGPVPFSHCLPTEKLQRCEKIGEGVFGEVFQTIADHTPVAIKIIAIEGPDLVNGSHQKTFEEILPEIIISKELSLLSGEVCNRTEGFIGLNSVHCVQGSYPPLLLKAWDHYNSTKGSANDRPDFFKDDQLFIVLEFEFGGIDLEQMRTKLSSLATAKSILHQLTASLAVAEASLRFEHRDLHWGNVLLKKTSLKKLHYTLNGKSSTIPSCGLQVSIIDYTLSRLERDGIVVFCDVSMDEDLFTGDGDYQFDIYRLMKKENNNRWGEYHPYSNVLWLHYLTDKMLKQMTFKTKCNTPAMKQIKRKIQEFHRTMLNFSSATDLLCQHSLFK
# method: ADP-Glo in vitro kinase inhibition assay, Haspin
# Assay type: biochemical
# conditionLabel: second most inhibited kinase named in parentheses below the value (PIM1 or CLK1)
readoutName: SI: selectivity index = IC50 second most inhibited kinase/IC50 Haspin

Use the examples below as a reference point.
>  <recordSmiles>
Nc1ccc(-c2c[nH]c3cc4cnccc4cc23)cn1

>  <measValue>
8.8

$$$$
>  <recordSmiles>
COC(=O)/C=C/c1c[nH]c2cc3cnccc3cc12

>  <measValue>
26.1

$$$$
>  <recordSmiles>
c1cc2cc3c(-c4cc[nH]n4)c[nH]c3cc2cn1

>  <measValue>
> 7

$$$$

The record that follows has no SI: selectivity index = IC50 second most inhibited kinase/IC50 Haspin shown yet.
SI: selectivity index = IC50 second most inhibited kinase/IC50 Haspin for c1cc2cc3c(-c4cn[nH]c4)c[nH]c3cc2cn1 ?
8.2
